Could you please report measured pre-steady-state target cleavage rate for the items listed next?
# Test system: MILI (PIWIL2) piRISC loaded with L1MC piRNA (26 nt);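 further: 1 nM active piRISC with 0.1 nM target library at 33 °C single turnover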
# Protocol notes: pre-steady-state target cleavage rate (min^-1); guide: L1MC piRNA 5'p-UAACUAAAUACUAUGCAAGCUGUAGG; higher = faster piRNA-guided slicing of the target
# Particulars: auxiliary factor: none (no GTSF1)
Answers are plain numbers.

Illustrative cases are given below, each with its answer.
{"Sequence": "UCCUGGUACAGCAUGCAUAGUAUUUAGUAA", "Measurement label": "pre-steady-state target cleavage rate", "Data value": 0.00467}
{"Sequence": "UCCUGGUACAGCUUGCAUACAAUUUAGUUA", "Measurement label": "pre-steady-state target cleavage rate", "Data value": 0.00451}
{"Sequence": "UCCUCGUACAGCUUGCAUAGUAUUUAGUAA", "Measurement label": "pre-steady-state target cleavage rate", "Data value": 0.00621}

Give pre-steady-state target cleavage rate for all sequences that follow.
1. UCCUGGAUGAGGUUGCAUAGUAUUAAGUUA
2. UCCUGGAUGUCGUUGCAUAGUAUUUAAGUUA
3. UCCUCCAACAGCUUGCAUAGUAAUUAGUUA

Solution:
1. 0.00493
2. 0.00676
3. 0.0065

---

Please respond with reported pre-steady-state target cleavage rate for every item in the list.
# Test system: MILI (PIWIL2) piRISC loaded with L1MC piRNA (26 nt);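 further: 1 nM active piRISC with 0.1 nM target library at 33 °C single turnover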
# Protocol notes: pre-steady-state target cleavage rate (min^-1); guide: L1MC piRNA 5'p-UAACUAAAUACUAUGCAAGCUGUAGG; MIWI and MILI are mouse PIWI proteins and EfPiwi is from a freshwater sponge; tags in brackets are library labels; higher = faster piRNA-guided slicing of the target
# Particulars: auxiliary factor: 500 nM mouse GTSF1
Give bare numbers.

{"Sequence": "UCCUGGAUGUCGAUGCAUAGUAUUCAGUUA", "Tested on": "MILI (PIWIL2) piRISC loaded with L1MC piRNA (26 nt)", "pre-steady-state target cleavage rate": 0.0263}
{"Sequence": "UCCUGGAACAGCUUGCAUAGUAAUUUCAAA", "Tested on": "MILI (PIWIL2) piRISC loaded with L1MC piRNA (26 nt)", "pre-steady-state target cleavage rate": 0.0786}
{"Sequence": "UCCUGCUACAGCUUCCUUAGUAUUUAGUUA", "Tested on": "MILI (PIWIL2) piRISC loaded with L1MC piRNA (26 nt)", "pre-steady-state target cleavage rate": 0.251}
{"Sequence": "UCCUCCAACAGCUUGCAAAGUAUUUAGUUA", "Tested on": "MILI (PIWIL2) piRISC loaded with L1MC piRNA (26 nt)", "pre-steady-state target cleavage rate": 0.155}
{"Sequence": "UCCUGGAUGAGCUAGCAUAGUAUUUACUUA", "Tested on": "MILI (PIWIL2) piRISC loaded with L1MC piRNA (26 nt)", "pre-steady-state target cleavage rate": 0.169}
{"Sequence": "UCCUGGAACAGCUUGCAUAGUAUUUAUUA", "Tested on": "MILI (PIWIL2) piRISC loaded with L1MC piRNA (26 nt)", "pre-steady-state target cleavage rate": 0.046}
{"Sequence": "UCCUCCUUCAGCUUGCAUAGUAUUUACAAA", "Tested on": "MILI (PIWIL2) piRISC loaded with L1MC piRNA (26 nt)", "pre-steady-state target cleavage rate": 0.13}
{"Sequence": "UCCUGGUACAGCAUGCAUAGUUUUUAGUUA", "Tested on": "MILI (PIWIL2) piRISC loaded with L1MC piRNA (26 nt)", "pre-steady-state target cleavage rate": 0.038}
{"Sequence": "UCCUGGAACAGCUUGCUAAGUAUUUACAAA", "Tested on": "MILI (PIWIL2) piRISC loaded with L1MC piRNA (26 nt)", "pre-steady-state target cleavage rate": 0.0164}
{"Sequence": "UCCUGGAACAGCUUGCAUAGUAUUCAGUUA", "Tested on": "MILI (PIWIL2) piRISC loaded with L1MC piRNA (26 nt)", "pre-steady-state target cleavage rate": 0.228}

For each of the items listed, what is its pre-steady-state target cleavage rate?
1. UCCUGGAUGUCGUUGCAUAGUAUCUUAGUUA
2. UCCUGGUACAGCUUGCAUAGAAAUUAGUUA
3. UCCUGCUACUGCUUCCAUAGUAUUUAGUUA

Solution:
[0.0991, 0.0374, 0.0453]

// for each sequence below, give its pre-steady-state target cleavage rate
1. UCCUGGAUGUCCUUGCUUACUAUUUAGUUA
2. UCCUCCUACAGCUUGCAUAGUAAUUACUUA
3. UCCUCCUUGAGCUUGCAUAGUAUUUAGUUA
4. UCCUGGAUGUGCUUGCUAAGUAUUUAGUUA

Solution:
1. 0.016
2. 0.0937
3. 0.216
4. 0.0146
